system: Abl kinases
protocol: Abl kinase inhibition (IC50 kinase)
Format: biochemical
readout.name: IC50 (nM)
# output: bare number, implied unit nM

stdin: Identify the reported IC50 for the following entry. `NC(=O)c1cccc(-c2cc(Nc3ccc(OC(F)(F)F)cc3)ncn2)c1`
stdout: 138

Origin of measurements: patent US10150742B2
